- method.description: Dose-escalation study of Compound 1 pharmacokinetics in subjects with advanced malignancies (tablets of Formulations 1 and/or 3, fasted; food effect cohort)
- Assay type: in vivo, human
- recorded.conditions: human, plasma, oral, 300 mg, 300 mg BID, steady state, geometric mean; read-out: AUC0-t
observation.type: AUC(0-t) (µM·h)
Record the value in µM·h, omitting the unit from your answer.

Ask: Bench note: what AUC(0-t) did `NS(=O)(=O)NCCNc1nonc1C(=NO)Nc1ccc(F)c(Br)c1` show?
Result: 8.88

---

- method.description: Dose-escalation study of Compound 1 pharmacokinetics in subjects with advanced malignancies (tablets of Formulations 1 and/or 3, fasted; food effect cohort)
- Format: in vivo, human
- recorded.conditions: human, plasma, oral, 600 mg, 600 mg BID, Fed (high-fat meal), mean ± SD
observation.type: Cmax (µM)
Record the value in µM, omitting the unit from your answer.

Ask: Bench note: what Cmax did NS(=O)(=O)NCCNc1nonc1C(=NO)Nc1ccc(F)c(Br)c1 [Compound 1] show?
Result: 4.53
